- System: PKB?ph
- methodNotes: Protein kinase activity in the presence of compound
- Type: biochemical
- testConditions: 10 μM compound; percentage of the activity measured in the absence of inhibitors
quantityKind: Residual activity PKB?ph
Enter the number, and then the unit.

Cc1cc2c(C(C)C)c(O)c(O)c(C=O)c2c(O)c1-c1c(C)cc2c(C(C)C)c(O)c(O)c(C=O)c2c1O; 94%

# assay system PKB?ph: give Residual activity PKB?ph of CC1=C(C2=C(C)C(=O)c3c(c(C=O)c(O)c(O)c3C(C)C)C2=O)C(=O)c2c(C=O)c(O)c(O)c(C(C)C)c2C1=O [Gossypolone, gossypolone, reference compound]
53%

Give Residual activity PKB?ph only, for CC1=C(C2=C(C)C(=O)c3c(c(O)c(O)c(O)c3C(C)C)C2=O)C(=O)c2c(O)c(O)c(O)c(C(C)C)c2C1=O , using PKB?ph data.
39%

Quote PKB?ph Residual activity PKB?ph for entry CC1=C(C2=C(C)C(=O)c3c(c(CSCCO)c(O)c(O)c3C(C)C)C2=O)C(=O)c2c(CSCCO)c(O)c(O)c(C(C)C)c2C1=O .
76%
